- assay.notes: AUC (0 to infinity) in CD mouse at 10 mg/kg, po
- Type: ADME, organism-based
- Set-up: time infinity, dose 10 mg/kg, route oral
- measurement.conditions: plasma
observable: AUC(0-inf) (ng·h/mL)
Numeric answer only, unit ng·h/mL assumed.

Given the entry CCCCN(c1cccc(-c2ccc(C(F)(F)F)cc2)c1Cl)S(=O)(=O)c1ccc(OC(C)C(=O)O)c(C)c1C (configuration not stated) , report its measured AUC(0-inf).
2480

Given the entry CCCCN(c1cccc(-c2ccc(OC(F)(F)F)cc2)c1Cl)S(=O)(=O)c1ccc(OC(C)C(=O)O)c(C)c1C (configuration not stated) , report its measured AUC(0-inf).
5870

###

- study.target: Peroxisome proliferator-activated receptor alpha (Homo sapiens)
- assay.notes: Displacement of [3H]GW 2433 from human PPARalpha by scintillation proximity assay
observable: pIC50
Please note pIC50 is a logarithmic value: minus log10 of concentration in mol/L. Answer with that number alone.

1) CCCCCN(c1cccc(-c2ccc(Cl)cc2)c1C)S(=O)(=O)c1ccc(OC(C)C(=O)O)c(C)c1C (configuration not stated)
4.80
2) Cc1c(-c2ccc(Cl)cc2)cccc1N(CC1CC1)S(=O)(=O)c1ccc(OC(C)C(=O)O)c(C)c1C (configuration not stated)
4.80

Given the entry CCCCN(c1cccc(-c2ccc(Cl)cc2)c1C)S(=O)(=O)c1ccc(OC(C)C(=O)O)c(F)c1F (configuration not stated) , report its measured pIC50.
5.00

Given the entry CCCCN(c1cccc(-c2ccc(C)cc2)c1C)S(=O)(=O)c1ccc(OC(C)C(=O)O)c(C)c1C (configuration not stated) , report its measured pIC50.
4.80

Given the entry CCCN(c1cccc(-c2ccc(Cl)cc2)c1C)S(=O)(=O)c1ccc(OC(C)C(=O)O)c(C)c1C (configuration not stated) , report its measured pIC50.
4.70

Given the entry CCCCN(c1cccc(-c2ccc(C(F)(F)F)cc2)c1C)S(=O)(=O)c1ccc(OC(C)C(=O)O)c(C)c1C (configuration not stated) , report its measured pIC50.
4.80

Given the entry CCCCN(c1cccc(-c2ccc(Cl)cc2)c1Cl)S(=O)(=O)c1ccc(OC(C)C(=O)O)c(C)c1C (configuration not stated) , report its measured pIC50.
4.90

Given the entry CCCCN(c1cccc(-c2ccc(Cl)cc2)c1C)S(=O)(=O)c1ccc(OCC(=O)O)c(C)c1C , report its measured pIC50.
5.20

Given the entry CCCCN(c1cccc(-c2ccc(C(F)(F)F)cc2)c1Cl)S(=O)(=O)c1ccc(OC(C)C(=O)O)c(C)c1C (configuration not stated) , report its measured pIC50.
5.10

###

- study.target: Peroxisome proliferator-activated receptor alpha (Homo sapiens, UniProt Q07869)
- Sequence (Q07869 whole entry): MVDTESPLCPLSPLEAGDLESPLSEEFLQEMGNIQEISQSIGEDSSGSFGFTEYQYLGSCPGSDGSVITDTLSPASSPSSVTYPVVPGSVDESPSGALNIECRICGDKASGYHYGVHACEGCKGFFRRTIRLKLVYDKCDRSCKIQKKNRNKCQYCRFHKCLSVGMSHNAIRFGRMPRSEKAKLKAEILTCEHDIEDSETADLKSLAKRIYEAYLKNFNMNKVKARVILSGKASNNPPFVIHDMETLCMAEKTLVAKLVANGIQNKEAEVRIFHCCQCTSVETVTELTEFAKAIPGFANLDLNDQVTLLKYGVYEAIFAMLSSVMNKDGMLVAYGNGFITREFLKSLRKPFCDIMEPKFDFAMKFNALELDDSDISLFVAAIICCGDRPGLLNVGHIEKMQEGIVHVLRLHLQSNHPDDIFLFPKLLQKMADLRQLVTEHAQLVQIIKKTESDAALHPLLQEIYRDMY
- assay.notes: Displacement of [3H]GW 2433 from human PPARalpha by scintillation proximity assay
Quick reference: IC50 of the listed items.
Numeric answer only, unit µM assumed.

1. CCCCN(c1cccc(-c2ccc(Cl)cc2)c1C)S(=O)(=O)c1ccc(O[C@@H](C)C(=O)O)c(C)c1C
15.8
2. Cc1cc(S(=O)(=O)N(CCC(C)C)c2cccc(-c3ccc(C(F)(F)F)cc3)c2)ccc1OCC(=O)O
15.8
3. Cc1c(-c2ccc(Cl)cc2)cccc1N(CC1CCC1)S(=O)(=O)c1ccc(OC(C)C(=O)O)c(C)c1C (stereo unspecified)
12.6
4. CCCCN(c1cccc(-c2ccccc2Cl)c1C)S(=O)(=O)c1ccc(OC(C)C(=O)O)c(C)c1C (stereo unspecified)
12.6
5. CCCCN(c1cccc(-c2ccc(Cl)cc2)c1C)S(=O)(=O)c1ccc(O[C@H](C)C(=O)O)c(C)c1C
20

Given the entry CCCCN(c1cc(-c2ccc(Cl)cc2)c(F)cc1C)S(=O)(=O)c1ccc(OC(C)C(=O)O)c(C)c1C (stereo unspecified) , report its measured IC50.
10

Given the entry CCCCN(c1cc(-c2ccc(Cl)cc2)ccc1OC(F)(F)F)S(=O)(=O)c1ccc(OC(C)C(=O)O)c(C)c1C (stereo unspecified) , report its measured IC50.
12.6

Given the entry CCCCN(c1cc(-c2ccc(Cl)cc2)ccc1C)S(=O)(=O)c1ccc(OC(C)C(=O)O)c(C)c1C (stereo unspecified) , report its measured IC50.
10

Given the entry CCCCN(c1cccc(-c2ccc(OC)cc2)c1C)S(=O)(=O)c1ccc(OC(C)C(=O)O)c(C)c1C (stereo unspecified) , report its measured IC50.
15.8

Given the entry CCCCN(c1cccc(-c2ccc(Cl)cc2)c1C)S(=O)(=O)c1ccc(OC(C)C(=O)O)c(F)c1OC (stereo unspecified) , report its measured IC50.
15.8

Given the entry CCCCN(c1cccc(-c2ccc(Cl)cc2)c1C)S(=O)(=O)c1ccc(OC(C)C(=O)O)c(F)c1Cl (stereo unspecified) , report its measured IC50.
12.6
